- target_of_assay: human Tissue Factor (TF) (human, UniProt P13726 33-295)
- experimental_details: cell-based or functional assay
Give rule met when the value for % GM-CSF at 6.4 nM antibody is at least 20%. Give rule not met when it is less.

Kindly determine if % GM-CSF at 6.4 nM antibody recorded for 25G9 (antibody, human IgG1, V domains shown) VH: QVQLVQSGAEVKKPGASVKVSCKASGYTFRSYGISWVRQAPGQGLEWMGWVAPYSGNTNYAQKLQGRVTMTTDTSTSTAYMELRSLRSDDTAVYYCARDAGTYSPYGYGMDVWGQGTTVTVSS VL: DIQMTQSPSTLSASVGDRVTITCQASQSIDSWLAWYQQKPGKAPKLLIYSASYLESGVPSRFSGSGSGTEFTLTISSLQPDDFATYYCQRFQSLPPFTFGGGTKVEIK is above or exactly 20%. rule met
